Each entry below lists one item and its recorded CC50 value.
- Tested on: SNB-75
- Assay Summary: Growth inhibition of human SNB75 cells
- Format: functional
- Test Conditions: read-out: LC50 (the source's name)
Use µM as the unit, but write only the number.

Consider the worked cases shown below.
Cc1ccc(-n2n[n+](C)c3c2C(=O)c2ccccc2C3=O)cc1.O=S(=O)([O-])C(F)(F)F | 8.91
COc1ccc(-n2n[n+](C)c3c2C(=O)c2ccccc2C3=O)cc1OC.O=S(=O)([O-])C(F)(F)F | 4.56

Query: Value wanted: CC50 (SNB-75) of entry `C[n+]1nn(-c2ccc(C(F)(F)F)cc2)c2c1C(=O)c1ccccc1C2=O.O=S(=O)([O-])C(F)(F)F`
Reply: 11.2

Query: Value wanted: CC50 (SNB-75) of entry `COc1ccc(-n2n[n+](C)c3c2C(=O)c2ccccc2C3=O)cc1.O=S(=O)([O-])C(F)(F)F`
Reply: 5.15

====

- Assay Summary: Growth inhibition of human LOXIMVI cells
- Type: functional
- Test Conditions: LOX IMVI
Each entry below lists one item and its recorded GI50 value.
Use µM as the unit, but write only the number.

Consider the worked cases shown below.
COc1ccc(-n2n[n+](C)c3c2C(=O)c2ccccc2C3=O)cc1.O=S(=O)([O-])C(F)(F)F | 1.24
C[n+]1nn(-c2ccc(F)cc2)c2c1C(=O)c1ccccc1C2=O.O=S(=O)([O-])C(F)(F)F | 1.35
C[n+]1nn(-c2ccc(C(F)(F)F)cc2)c2c1C(=O)c1ccccc1C2=O.O=S(=O)([O-])C(F)(F)F | 2.68

Query: Requested read-out: GI50. Entry: `Cc1ccc(-n2n[n+](C)c3c2C(=O)c2ccccc2C3=O)cc1.O=S(=O)([O-])C(F)(F)F`
Reply: 1.8

====

- Test system: SK-MEL-2
- Assay Summary: Growth inhibition of human SK-MEL-2 cells
- Assay type: functional
Each entry below lists one item and its recorded GI50 value.
Use nM as the unit, but write only the number.

Query: Requested read-out: GI50. Entry: `COc1cc(OC)cc(-n2n[n+](C)c3c2C(=O)c2ccccc2C3=O)c1.O=S(=O)([O-])C(F)(F)F`
Reply: 2080

====

- Assay Summary: Growth inhibition of human HCC2998 cells
- Type: functional
- Test Conditions: HCC 2998
Each entry below lists one item and its recorded GI50 value.
Use nM as the unit, but write only the number.

C[n+]1nn(-c2ccccc2)c2c1C(=O)c1ccccc1C2=O.[Cl-] | 340
C[n+]1nn(-c2ccc(C(F)(F)F)cc2)c2c1C(=O)c1ccccc1C2=O.O=S(=O)([O-])C(F)(F)F | 1520
COc1cc(OC)cc(-n2n[n+](C)c3c2C(=O)c2ccccc2C3=O)c1.O=S(=O)([O-])C(F)(F)F | 1500

Query: Requested read-out: GI50. Entry: `Cc1ccc(-n2n[n+](C)c3c2C(=O)c2ccccc2C3=O)cc1.O=S(=O)([O-])C(F)(F)F`
Reply: 1130

====

Each entry below lists one item and its recorded GI50 value.
- Test system: NCI-H23
- Assay Summary: Growth inhibition of human NCI-H23 cells
- Assay type: functional
Express the reported value numerically, then name its unit.

Consider the worked cases shown below.
C[n+]1nn(-c2ccc(C(F)(F)F)cc2)c2c1C(=O)c1ccccc1C2=O.O=S(=O)([O-])C(F)(F)F | 360 nM
COc1ccc(-n2n[n+](C)c3c2C(=O)c2ccccc2C3=O)cc1OC.O=S(=O)([O-])C(F)(F)F | 1060 nM
COc1cc(OC)cc(-n2n[n+](C)c3c2C(=O)c2ccccc2C3=O)c1.O=S(=O)([O-])C(F)(F)F | 1260 nM
C[n+]1nn(-c2ccc(F)cc2)c2c1C(=O)c1ccccc1C2=O.O=S(=O)([O-])C(F)(F)F | 820 nM
Cc1ccc(-n2n[n+](C)c3c2C(=O)c2ccccc2C3=O)cc1.O=S(=O)([O-])C(F)(F)F | 650 nM

Query: Requested read-out: GI50. Entry: `COc1ccc(-n2n[n+](C)c3c2C(=O)c2ccccc2C3=O)cc1.O=S(=O)([O-])C(F)(F)F`
Reply: 1050 nM

Query: Requested read-out: GI50. Entry: `COc1cc(-n2n[n+](C)c3c2C(=O)c2ccccc2C3=O)cc(OC)c1OC.O=S(=O)([O-])C(F)(F)F`
Reply: 1940 nM

Query: Requested read-out: GI50. Entry: `C[n+]1nn(-c2ccccc2)c2c1C(=O)c1ccccc1C2=O.[Cl-]`
Reply: 980 nM

The origin of these recorded values is ChEMBL document CHEMBL3232814.
